# TARGET ENTITY: PAR1 (Homo sapiens (Human), UniProt P25116)
# Sequence (P25116 22-425): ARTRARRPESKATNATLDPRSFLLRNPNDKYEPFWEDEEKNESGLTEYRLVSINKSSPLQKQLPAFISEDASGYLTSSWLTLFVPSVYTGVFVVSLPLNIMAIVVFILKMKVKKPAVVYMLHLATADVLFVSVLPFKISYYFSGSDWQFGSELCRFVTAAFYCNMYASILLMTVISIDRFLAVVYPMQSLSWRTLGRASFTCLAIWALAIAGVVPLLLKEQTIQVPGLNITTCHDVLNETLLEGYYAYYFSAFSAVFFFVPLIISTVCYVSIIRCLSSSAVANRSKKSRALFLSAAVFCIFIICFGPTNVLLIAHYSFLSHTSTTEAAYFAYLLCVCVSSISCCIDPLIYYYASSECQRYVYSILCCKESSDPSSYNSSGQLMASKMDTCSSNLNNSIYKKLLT
# PROCEDURE DETAILS: Inhibition of PAR1-mediated platelet aggregation induced by TRAP
# Format: cell-based
# CONDITION CONTEXT: TRAP-induced aggregation of washed platelets from healthy volunteer donors, 96-well format
Structures can show the parent of a compound that is named as a salt.
METRIC NAME: IC50 (nM)
Supply the numeric figure in nM, leaving out any unit text.

>  <COMPOUND>
CC(C)(C)c1cc(C(=O)C[n+]2nc(N)n3ccccc32)cc(C(C)(C)C)c1O [Example 3, trifluoroacetate]

>  <TARGET ENTITY>
PAR1 (Homo sapiens (Human), UniProt P25116)

>  <IC50 / nM>
1080

$$$$

Entry CCOc1cc(C(=O)C[n+]2nc(N)n3nc(OC(CC)CC)ccc32)cc(C(C)(C)C)c1 has what IC50?
6

Then what about the compound CCCCOc1ccc2n(n1)c(N)n[n+]2CC(=O)c1cc(COC)cc(C(C)(C)C)c1 ?
37

Try this compound too: COc1c(N2CCOCC2)cc(C(=O)C[n+]2nc(N)n3cc(C(F)(F)F)ccc32)cc1C(C)(C)C [Example 4, trifluoroacetate]
126

# repeat for CCC(CC)Oc1ccc2n(n1)c(N)n[n+]2CC(=O)c1cc(OC)c(OC)c(OCC2CCCCC2)c1
240

Follow-up entry: CCC(CC)Oc1ccc2n(n1)c(N)n[n+]2CC(=O)c1cc(OC)cc(S(F)(F)(F)(F)F)c1
5

Similarly, CCOC(=O)c1cn2c(N)n[n+](CC(=O)c3cc(N4CCOCC4)c(OC)c(C(C)(C)C)c3)c2cc1OCC [Example 8, trifluoroacetate] ?
4400

Numbers sourced from patent US8853206B2.
